test.system: PRMT5/MEP50 protein complex (Homo sapiens (Human), UniProt O14744)
Sequence (O14744 other isoform, or with tags, fused parts or gaps): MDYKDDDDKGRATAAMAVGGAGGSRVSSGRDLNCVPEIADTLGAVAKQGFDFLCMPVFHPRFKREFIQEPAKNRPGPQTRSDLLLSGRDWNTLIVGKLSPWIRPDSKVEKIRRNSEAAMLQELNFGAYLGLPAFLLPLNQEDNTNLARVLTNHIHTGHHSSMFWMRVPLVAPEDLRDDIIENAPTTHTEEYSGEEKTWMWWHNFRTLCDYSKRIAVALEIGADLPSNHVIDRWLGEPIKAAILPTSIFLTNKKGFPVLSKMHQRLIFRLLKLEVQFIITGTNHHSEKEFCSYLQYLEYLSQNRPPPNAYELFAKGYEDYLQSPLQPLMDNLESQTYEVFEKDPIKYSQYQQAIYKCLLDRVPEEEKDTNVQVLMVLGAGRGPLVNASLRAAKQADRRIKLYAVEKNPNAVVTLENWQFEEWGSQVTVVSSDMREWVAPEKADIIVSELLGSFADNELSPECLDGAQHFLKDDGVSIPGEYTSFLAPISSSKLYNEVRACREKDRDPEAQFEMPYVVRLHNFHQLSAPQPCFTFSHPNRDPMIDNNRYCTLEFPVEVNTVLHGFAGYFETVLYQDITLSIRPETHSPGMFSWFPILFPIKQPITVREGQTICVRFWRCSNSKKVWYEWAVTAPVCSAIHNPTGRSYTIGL
Sequence (Q9BQA1 whole entry partner): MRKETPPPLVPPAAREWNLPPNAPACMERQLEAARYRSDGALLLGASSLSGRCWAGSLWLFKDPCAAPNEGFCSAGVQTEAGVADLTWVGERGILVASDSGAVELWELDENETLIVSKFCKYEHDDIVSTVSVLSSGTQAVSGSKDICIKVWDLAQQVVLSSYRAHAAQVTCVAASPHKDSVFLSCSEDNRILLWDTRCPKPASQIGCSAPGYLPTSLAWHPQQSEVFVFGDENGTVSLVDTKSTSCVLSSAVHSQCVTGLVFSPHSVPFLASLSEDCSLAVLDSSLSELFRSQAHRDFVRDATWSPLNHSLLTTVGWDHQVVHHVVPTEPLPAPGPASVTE
assay.comment: PRMT5 biochemical assay (3H-SAM methylation of H4(1-21) peptide, filter plate scintillation)
study.conditions: 10 nM PRMT5/MEP50 complex, 200 nM H4(1-21) peptide, 1 uM SAM, 25 minute incubation at room temperature
pIC50: −log10 of the molar value.
Each entry gets 0.0 if its pIC50 stays under 8, and 1.0 if its pIC50 is 8 or above.

Some entries whose results are on file:
{"columns": ["compound", "label.class"],
 "data": [
  ["Cc1ncnc2c1ccn2[C@@H]1C[C@H]([C@H](O)c2ccc(F)cc2)[C@@H](O)[C@H]1O [Example 9]", 0.0],
  ["CN(c1ccnc(N)n1)[C@@H]1C[C@H]([C@H](O)c2ccc(F)c(F)c2)[C@@H](O)[C@H]1O [Example 39]", 0.0]
]}

Check the entry Cc1ncnc2c1ccn2[C@@H]1C[C@H](C(F)(CN)c2ccc(F)cc2)[C@@H](O)[C@H]1O (stereo partly drawn) [Example 50] : does pIC50 equal or exceed 8?
0.0

Check the entry CC1CNCc2c(O[C@H]3C[C@@H](n4cc(F)c5c(N)ncnc54)[C@H](O)[C@@H]3O)cc(C(F)F)c(F)c21 (stereo partly drawn) [Example 216] : does pIC50 equal or exceed 8?
1.0

Check the entry Cc1ncc(O[C@H]2C[C@@H](n3ccc4c(C)ncnc43)[C@H](O)[C@@H]2O)c2c1CCNC2 [Example 96] : does pIC50 equal or exceed 8?
0.0

Check the entry Cc1ncnc2c1ccn2[C@@H]1C[C@H](C(F)c2ccc(F)cc2)[C@@H](O)[C@H]1O (single isomer, unassigned) [Example 22] : does pIC50 equal or exceed 8?
1.0

Check the entry Cc1ncnc2c1ccn2[C@@H]1C[C@H](Oc2cc(C(F)F)c(F)c3c2CNCC3C)[C@@H](O)[C@H]1O (stereo partly drawn) [Example 212] : does pIC50 equal or exceed 8?
1.0

Check the entry Cc1ncnc2c1ccn2[C@@H]1C[C@H]([C@@H](O)c2ccc(F)c(Cl)c2)[C@@H](O)[C@H]1O [Example 6] : does pIC50 equal or exceed 8?
0.0

Check the entry Cc1ncnc2c1ccn2[C@H]1C[C@@H](Oc2ccc(F)cc2C#N)[C@H](O)[C@@H]1O [Example 69] : does pIC50 equal or exceed 8?
0.0

Check the entry Cc1ncnc2c1ccn2[C@@H]1C[C@H](Cc2ccc(F)cc2)[C@@H](O)[C@H]1O [Example 58] : does pIC50 equal or exceed 8?
0.0

Check the entry Cc1ncnc2c1ccn2[C@@H]1C[C@H](Oc2cc(C(F)F)c(F)c3c2CNCC3C)[C@@H](O)[C@H]1O (stereo partly drawn) [Example 211] : does pIC50 equal or exceed 8?
1.0

Check the entry Cc1nc(N)nc(N(C)[C@@H]2C[C@H]([C@@H](O)c3ccc(F)c(F)c3)[C@@H](O)[C@H]2O)n1 [Example 42] : does pIC50 equal or exceed 8?
0.0

Check the entry Nc1ncnc2c1c(F)cn2[C@@H]1C[C@H](Oc2cccc3c2CNCC3)[C@@H](O)[C@H]1O [Example 99] : does pIC50 equal or exceed 8?
1.0

Check the entry Cc1ncnc2c1ccn2[C@@H]1C[C@H](Oc2cc(Cl)c(F)cc2[C@H](C)N)[C@@H](O)[C@H]1O [Example 139] : does pIC50 equal or exceed 8?
1.0

Check the entry Cc1cn([C@@H]2C[C@H](Oc3ccc(F)c4c3CNCC4)[C@@H](O)[C@H]2O)c2ncnc(N)c12 [Example 121] : does pIC50 equal or exceed 8?
1.0
